Exercise: state measured CE Rat LVms 10 uM 10 min for each of the molecules provided.
- Test system: carboxylesterase (CE)
- Procedure details: Carboxylesterase (CE) activity in rat liver microsomes (LVms), p-nitrophenyl acetate
- Type: biochemical
- Stated conditions: 10 uM compound, read 10 min after substrate, remaining CE activity

Checklist item: CE Rat LVms 10 uM 10 min tested on carboxylesterase (CE), entry CN(C(=O)n1cnc(-c2ccc3oc(=O)[nH]c3c2)c1)C1CCCC1 [Compound 564] , value?
96.1 % of control

Another molecule: COc1ccc(N(C)C(=O)n2cnc(-c3ccc4ccccc4c3)c2)cc1 [Compound 16]
87.5 % of control

What do you get for O=C(NCCCCc1ccccc1)n1nnc2ccccc21 [Compound 85] ?
33 % of control

Do the same for CN(C(=O)n1nnc2cc(Br)ccc21)C1CCCCC1 [Compound 97] please
41.1 % of control

Moving on to the next molecule: CN(C(=O)n1cnc(-c2ccc(S(C)(=O)=O)cc2)c1)C1CCN(Cc2ccccc2)CC1 [Compound 567]
97.8 % of control

What do you have for COc1cccc(-c2cn(C(=O)N3CCCc4ccccc43)cn2)c1 [Compound 39] ?
94.7 % of control
